Reported abundance fitness is given for each of the following variants.
B1: Peroxisome proliferator-activated receptor delta, residues 71 to 145; numbered along this chain, Q03181 (parent)
chain: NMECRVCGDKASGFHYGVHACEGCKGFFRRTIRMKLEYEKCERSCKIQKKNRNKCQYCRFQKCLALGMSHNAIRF

variants of: B1; test: abundance fitness (aPCA) (normalised: wild type 0, dead -1); higher = more abundant; growth selection in yeast, the domain comes from the species named; settings: Homo sapiens
Reply with just the number.

[
  {
    "change": "M2A",
    "abundance fitness": -0.526
  },
  {
    "change": "C41H",
    "abundance fitness": -0.361
  },
  {
    "change": "M34D",
    "abundance fitness": 0.192
  },
  {
    "change": "L66Y",
    "abundance fitness": -0.345
  },
  {
    "change": "C24I",
    "abundance fitness": -0.464
  }
]

Task: Give me measured abundance fitness, please, for this variant: K40N
Result: -0.225

Task: Give me measured abundance fitness, please, for this variant: G13Y
Result: -0.385

Task: Give me measured abundance fitness, please, for this variant: N1A
Result: -0.179

Task: Give me measured abundance fitness, please, for this variant: R52S
Result: -0.022

Task: Give me measured abundance fitness, please, for this variant: K35T
Result: -0.272

Task: Give me measured abundance fitness, please, for this variant: K54D
Result: -0.02

Task: Give me measured abundance fitness, please, for this variant: Y57V
Result: -0.675

Recorded values, source the Human Domainome abundance scans (Beltran et al. 2025).
